test system: K-562 leukemia; experiment: NCI tumour cell line growth inhibition, 48 h
The compounds listed here are annotated with their TGI.

compound	TGI
CCOC(=O)c1sc2nc(SC)nc(Nc3ccc4c(c3)OCCCO4)c2c1N	> 100 µM
CCCCCCCCCCCCCCCCOP(=O)(O)OP(=O)(O)OCC1OC(n2ccc(N)nc2=O)CC1O (configuration not stated)	> 100 µM
CC1CC(N)=Nc2ccccc2N1Cc1ccccc1 (configuration not stated)	15.7 µM
CN(C)c1ccc(N=Nc2cccc3ccoc23)cc1	> 100 µM
Cc1cc(Cl)nc(NC(=O)CSc2ccc(Cl)cc2)n1	> 100 µM
CNC(=O)Nc1cc2c3c(c1)CCCN3CCC2	> 10 µM
Nc1nc(N)c2nc(CNc3ccc(C(=O)CC(CCC(=O)O)C(=O)O)cc3)cnc2n1 (configuration not stated)	> 100 µM

====

system: MOLT-4 leukemia; assay: NCI tumour cell line growth inhibition, 48 h; in the data active = GI50 below about 0.43 µM; inactive = the rest
Outcomes: t (active), f (inactive)

substance-smiles	assigned-label
CN1CCN(C(=O)c2ccc(NC(=O)Nc3ccc(N(C)c4ccnc(Nc5ccc(CS(C)(=O)=O)cc5)n4)cc3)cc2)CC1	f
C/C(=C\c1ccn(-c2ccc(N)c(C(F)(F)F)c2)n1)[C@@H]1C[C@@H]2O[C@]2(C)CCC[C@H](C)[C@H](O)[C@@H](C)C(=O)C(C)(C)[C@@H](O)CC(=O)O1	t
O=S(=O)(NCCNc1cc(-c2cn(-c3ccccc3)nc2-c2cccc(O)c2)ccn1)c1ccc(C(F)(F)F)cc1	f
C[C@H](c1ccc(Cl)cc1N)N1C(=O)c2cc(I)ccc2N(CCCN2CCN(C)CC2)C(=O)[C@@H]1c1ccc(Cl)cc1	f
CCCCCCCCCCCCCOC(=O)c1c(C)[nH]c(/C=C2\N=C(c3ccc[nH]3)C=C2OC)c1C	t
COc1cc2[nH]c(C(=O)c3cc(OC)c(OC)c(OC)c3)c(N)c2cc1C#CCO	f
Cc1cc(NC(=O)c2ccc(NS(=O)(=O)CCO)cc2N2CCC3(CC2)CC3)nc(N2CCC(F)(F)CC2)n1	f

====

system: UACC-257 melanoma; test: NCI tumour cell line growth inhibition, 48 h; in the data active = GI50 below about 0.43 µM; inactive = the rest
Outcomes: active, inactive

compound	assigned-label
CS(=O)(=O)CCNCc1ccc(-c2ccc3ncnc(Nc4ccc(OCc5ccccc5)c(C(F)(F)F)c4)c3c2)o1	inactive
CCN1C(=O)N(CC)C2C1NN=c1s/c(=C3\C(=O)N(CCC(C)C)c4ccccc43)c(=O)n12 (centres undefined)	inactive
CCc1ccc(C2=C/C(=C/c3ccc(Cl)cc3)C(=O)N2CCc2ccc(S(N)(=O)=O)cc2)cc1	inactive
C[C@H]1CCC/C=C/[C@@H]2C[C@H](O)C[C@H]2[C@H](O)[C@H](S(=O)c2ccc(O)cc2)CC(=O)O1 (some centres undefined)	active

====

system: NCI-H522 lung; experiment: NCI tumour cell line growth inhibition, 48 h; in the data active means GI50 below about 0.43 µM; inactive means the rest
Outcomes: active, inactive

substance-smiles	tested-on	assigned-label
CCCCCCCCN(CCCCCCCC)C(=N)c1ccnc2ccccc12	NCI-H522 lung	inactive
Cc1cc(NC(=O)c2ccc(NS(=O)(=O)CCO)cc2N2CCC3(CC2)CC3)nc(N2CCC(F)(F)CC2)n1	NCI-H522 lung	inactive
Nc1ccccc1NC(=O)c1ccc(CSc2nc(N3CCOCC3)c3cccn3n2)cc1	NCI-H522 lung	active
CN1CCN(C(=O)c2ccc(NC(=O)Nc3ccc(N(C)c4ccnc(Nc5ccc(CS(C)(=O)=O)cc5)n4)cc3)cc2)CC1	NCI-H522 lung	inactive
